Test system: HPV-transformed cells (HeLa, CaSki and SiHa)
experimentDescription: XTT cell viability, 48 hr treatment
Type: cell-based, human
conditionNotes: read-out: IC50, anti-proliferative effect
metric: IC50

Request: Item N[C@@H](Cc1ccccc1)C(=O)N1C/C(=C\c2ccc(Cl)c(Cl)c2)C(=O)/C(=C/c2ccc(Cl)c(Cl)c2)C1 [RA190] has what recorded IC50?
Result: ≤ 300 nM

---

Test system: MM lines (ANBL6, MM.1S, NCI-H929, U266 and RPMI-8226)
experimentDescription: XTT cell viability, 48 hr treatment
Type: cell-based, human
conditionNotes: read-out: IC50, anti-proliferative effect
metric: IC50

Request: Please tell me: IC50 of N[C@@H](Cc1ccccc1)C(=O)N1C/C(=C\c2ccc(Cl)c(Cl)c2)C(=O)/C(=C/c2ccc(Cl)c(Cl)c2)C1 , system MM lines (ANBL6, MM.1S, NCI-H929, U266 and RPMI-8226)?
Result: ≤ 100 nM
